Every entry's value here was drawn from paper PMC6407913.

# STUDY_TARGET: D5 (Homo sapiens, UniProt P21918)
# Sequence (P21918 whole entry): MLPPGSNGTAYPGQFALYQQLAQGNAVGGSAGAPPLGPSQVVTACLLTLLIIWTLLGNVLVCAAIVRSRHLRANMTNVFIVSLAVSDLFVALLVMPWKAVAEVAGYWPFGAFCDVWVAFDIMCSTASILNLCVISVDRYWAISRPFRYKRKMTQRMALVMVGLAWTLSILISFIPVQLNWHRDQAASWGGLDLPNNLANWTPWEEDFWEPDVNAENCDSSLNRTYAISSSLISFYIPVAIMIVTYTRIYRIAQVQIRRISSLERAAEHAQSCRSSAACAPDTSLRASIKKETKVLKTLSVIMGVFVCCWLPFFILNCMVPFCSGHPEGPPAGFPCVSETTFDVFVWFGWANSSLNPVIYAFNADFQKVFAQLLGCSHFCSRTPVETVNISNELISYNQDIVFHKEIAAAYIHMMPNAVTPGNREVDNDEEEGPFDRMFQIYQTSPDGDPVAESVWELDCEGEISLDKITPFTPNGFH
# ASSAY_PROCEDURE: NIMH PDSP radioligand binding, membranes
# EXPERIMENTAL_CONDITIONS: read-out: Ki
OBSERVABLE: pKi
Reminder that pKi means the negative base-10 logarithm of the concentration expressed in mol/L.

Complete the entry with pKi for c1ccc2c(c1)N=C(N1CCNCC1)c1ccccc1N2
5.54

* * *

# STUDY_TARGET: D3 (Homo sapiens, UniProt P35462)
# Sequence (P35462 whole entry): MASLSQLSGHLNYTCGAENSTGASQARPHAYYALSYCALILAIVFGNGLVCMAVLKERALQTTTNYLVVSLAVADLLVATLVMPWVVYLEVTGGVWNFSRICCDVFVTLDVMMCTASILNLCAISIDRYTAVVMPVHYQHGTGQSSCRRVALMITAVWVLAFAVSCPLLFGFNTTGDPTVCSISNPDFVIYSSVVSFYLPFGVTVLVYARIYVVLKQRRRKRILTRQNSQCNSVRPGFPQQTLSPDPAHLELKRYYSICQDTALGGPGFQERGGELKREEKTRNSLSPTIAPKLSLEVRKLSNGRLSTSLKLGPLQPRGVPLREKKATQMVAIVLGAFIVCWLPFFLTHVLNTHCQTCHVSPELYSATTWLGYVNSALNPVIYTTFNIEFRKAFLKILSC
# ASSAY_PROCEDURE: NIMH PDSP radioligand binding, membranes
# EXPERIMENTAL_CONDITIONS: read-out: Ki
OBSERVABLE: Ki (nM)
State just the number; it will be interpreted in nM.

Send back D3 (Homo sapiens, UniProt P35462) Ki of c1ccc2c(c1)N=C(N1CCNCC1)c1ccccc1N2 [C21] only.
870

* * *

# STUDY_TARGET: hM4Di (Homo sapiens, UniProt P08173, A203G/Y113C)
# Sequence (P08173 whole entry Y113C/A203G): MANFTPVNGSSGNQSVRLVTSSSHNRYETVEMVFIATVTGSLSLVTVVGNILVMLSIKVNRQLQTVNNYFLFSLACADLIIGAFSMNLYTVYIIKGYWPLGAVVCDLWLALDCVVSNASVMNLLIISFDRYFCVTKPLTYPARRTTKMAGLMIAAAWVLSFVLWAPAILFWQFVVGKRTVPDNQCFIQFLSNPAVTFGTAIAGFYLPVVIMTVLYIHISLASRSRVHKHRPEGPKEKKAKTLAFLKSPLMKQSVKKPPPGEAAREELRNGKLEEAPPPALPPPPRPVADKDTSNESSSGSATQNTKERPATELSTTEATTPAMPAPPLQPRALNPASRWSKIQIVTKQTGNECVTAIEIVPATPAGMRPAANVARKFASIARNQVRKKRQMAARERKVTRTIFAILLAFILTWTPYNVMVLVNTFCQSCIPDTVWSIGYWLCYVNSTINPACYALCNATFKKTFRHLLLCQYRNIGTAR
# ASSAY_PROCEDURE: inhibition of isoproterenol-stimulated cAMP production
# Assay type: cell-based
# Parameters: expressed in transfected cells
# EXPERIMENTAL_CONDITIONS: inhibition of isoproterenol elevated cAMP, mean (±SEM)
OBSERVABLE: pEC50
Reminder that pEC50 means the negative base-10 logarithm of the concentration expressed in mol/L.

>  <COMPOUND>
CN1CCN(C2=Nc3ccccc3Cc3ccccc32)CC1 [perlapine]

>  <pEC50>
7.20

$$$$

In the following, a different compound is considered.
Complete the entry with pEC50 for c1ccc2c(c1)N=C(N1CCNCC1)c1ccccc1N2 [C21]
7.75

* * *

# STUDY_TARGET: M3 (Homo sapiens)
# Sequence (P20309 whole entry): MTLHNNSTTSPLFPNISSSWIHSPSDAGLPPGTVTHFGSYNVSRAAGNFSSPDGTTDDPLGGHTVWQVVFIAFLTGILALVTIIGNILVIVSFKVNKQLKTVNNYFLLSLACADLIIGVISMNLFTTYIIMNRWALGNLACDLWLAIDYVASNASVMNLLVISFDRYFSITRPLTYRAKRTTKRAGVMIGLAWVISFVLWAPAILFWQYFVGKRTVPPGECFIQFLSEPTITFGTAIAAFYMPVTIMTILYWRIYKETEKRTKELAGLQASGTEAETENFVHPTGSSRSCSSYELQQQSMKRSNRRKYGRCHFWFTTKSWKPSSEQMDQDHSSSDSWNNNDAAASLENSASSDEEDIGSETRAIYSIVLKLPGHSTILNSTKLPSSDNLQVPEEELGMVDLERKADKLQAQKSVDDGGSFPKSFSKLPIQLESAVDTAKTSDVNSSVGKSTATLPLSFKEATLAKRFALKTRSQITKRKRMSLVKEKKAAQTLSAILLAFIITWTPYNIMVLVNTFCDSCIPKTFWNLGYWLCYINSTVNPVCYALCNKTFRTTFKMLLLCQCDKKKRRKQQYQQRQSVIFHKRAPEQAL
# ASSAY_PROCEDURE: NIMH PDSP radioligand binding, membranes
# EXPERIMENTAL_CONDITIONS: read-out: Ki
OBSERVABLE: Ki
Just so you know, I need the unit written after the number.

Complete the entry with Ki for c1ccc2c(c1)N=C(N1CCNCC1)c1ccccc1N2 [C21]
270 nM

* * *

# STUDY_TARGET: CB1 (Homo sapiens)
# Sequence (P21554 whole entry, species assumed): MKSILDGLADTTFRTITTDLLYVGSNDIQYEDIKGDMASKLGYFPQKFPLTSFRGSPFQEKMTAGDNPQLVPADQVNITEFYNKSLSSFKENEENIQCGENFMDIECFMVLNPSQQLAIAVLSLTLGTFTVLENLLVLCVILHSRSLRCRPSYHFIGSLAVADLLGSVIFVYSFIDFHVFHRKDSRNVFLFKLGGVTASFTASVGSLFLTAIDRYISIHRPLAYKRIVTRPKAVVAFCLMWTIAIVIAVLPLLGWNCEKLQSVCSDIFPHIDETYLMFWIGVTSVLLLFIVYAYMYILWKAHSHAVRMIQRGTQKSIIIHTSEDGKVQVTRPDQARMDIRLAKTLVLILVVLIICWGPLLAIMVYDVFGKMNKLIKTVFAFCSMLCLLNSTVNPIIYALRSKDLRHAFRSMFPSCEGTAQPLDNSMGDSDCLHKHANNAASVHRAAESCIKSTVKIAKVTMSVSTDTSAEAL
# ASSAY_PROCEDURE: NIMH PDSP radioligand binding, membranes
# EXPERIMENTAL_CONDITIONS: read-out: Ki
OBSERVABLE: Ki

Complete the entry with Ki for c1ccc2c(c1)N=C(N1CCNCC1)c1ccccc1N2
> 10 µM

* * *

# STUDY_TARGET: D2 (Homo sapiens)
# Sequence (P14416 whole entry): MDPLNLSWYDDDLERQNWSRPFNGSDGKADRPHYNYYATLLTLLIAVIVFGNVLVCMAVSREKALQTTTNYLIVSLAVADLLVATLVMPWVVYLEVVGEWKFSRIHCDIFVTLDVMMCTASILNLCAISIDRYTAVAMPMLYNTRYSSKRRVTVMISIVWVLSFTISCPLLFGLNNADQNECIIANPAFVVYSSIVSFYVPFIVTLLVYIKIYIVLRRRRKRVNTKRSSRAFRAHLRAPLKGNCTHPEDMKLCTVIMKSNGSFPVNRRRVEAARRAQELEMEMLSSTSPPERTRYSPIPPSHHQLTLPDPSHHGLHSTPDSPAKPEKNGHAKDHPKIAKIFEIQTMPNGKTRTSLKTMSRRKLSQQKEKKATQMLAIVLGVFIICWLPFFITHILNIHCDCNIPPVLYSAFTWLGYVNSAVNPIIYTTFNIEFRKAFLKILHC
# ASSAY_PROCEDURE: NIMH PDSP radioligand binding, membranes
# EXPERIMENTAL_CONDITIONS: read-out: Ki
OBSERVABLE: Ki (µM)
State just the number; it will be interpreted in µM.

Send back D2 (Homo sapiens) Ki of c1ccc2c(c1)N=C(N1CCNCC1)c1ccccc1N2 only.
4.57

* * *

# STUDY_TARGET: UniProt Q9Y5N1
# Sequence (Q9Y5N1 whole entry): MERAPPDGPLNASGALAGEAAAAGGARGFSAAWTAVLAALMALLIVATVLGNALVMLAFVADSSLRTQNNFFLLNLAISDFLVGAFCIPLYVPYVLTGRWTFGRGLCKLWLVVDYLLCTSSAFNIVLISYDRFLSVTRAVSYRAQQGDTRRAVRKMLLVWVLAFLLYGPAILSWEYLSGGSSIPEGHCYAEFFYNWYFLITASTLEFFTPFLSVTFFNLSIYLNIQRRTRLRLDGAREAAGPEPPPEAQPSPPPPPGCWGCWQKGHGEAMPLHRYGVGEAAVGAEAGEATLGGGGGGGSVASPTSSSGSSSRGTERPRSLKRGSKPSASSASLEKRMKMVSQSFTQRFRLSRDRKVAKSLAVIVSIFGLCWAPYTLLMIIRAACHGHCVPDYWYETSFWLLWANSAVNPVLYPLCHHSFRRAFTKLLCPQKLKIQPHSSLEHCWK
# ASSAY_PROCEDURE: NIMH PDSP radioligand binding, membranes
# EXPERIMENTAL_CONDITIONS: read-out: Ki
OBSERVABLE: Ki (µM)
State just the number; it will be interpreted in µM.

Complete the entry with Ki for c1ccc2c(c1)N=C(N1CCNCC1)c1ccccc1N2 [C21]
4.94

* * *

Each record here notes measured pEC50.
# STUDY_TARGET: hM1Dq (Homo sapiens, UniProt P11229, A196G/Y106C)
# ASSAY_PROCEDURE: ERK1/2 phosphorylation (pERK1/2) assay
Reminder that pEC50 means the negative base-10 logarithm of the concentration expressed in mol/L.

Send back hM1Dq (Homo sapiens, UniProt P11229, A196G/Y106C) pEC50 of c1ccc2c(c1)N=C(N1CCNCC1)c1ccccc1N2 only.
6.54

Send back hM1Dq (Homo sapiens, UniProt P11229, A196G/Y106C) pEC50 of CN1CCN(C2=Nc3ccccc3Cc3ccccc32)CC1 only.
6.80

* * *

# STUDY_TARGET: 5-HT7 (Homo sapiens)
# Construct: NIMH PDSP
# Sequence (P34969 whole entry, species assumed): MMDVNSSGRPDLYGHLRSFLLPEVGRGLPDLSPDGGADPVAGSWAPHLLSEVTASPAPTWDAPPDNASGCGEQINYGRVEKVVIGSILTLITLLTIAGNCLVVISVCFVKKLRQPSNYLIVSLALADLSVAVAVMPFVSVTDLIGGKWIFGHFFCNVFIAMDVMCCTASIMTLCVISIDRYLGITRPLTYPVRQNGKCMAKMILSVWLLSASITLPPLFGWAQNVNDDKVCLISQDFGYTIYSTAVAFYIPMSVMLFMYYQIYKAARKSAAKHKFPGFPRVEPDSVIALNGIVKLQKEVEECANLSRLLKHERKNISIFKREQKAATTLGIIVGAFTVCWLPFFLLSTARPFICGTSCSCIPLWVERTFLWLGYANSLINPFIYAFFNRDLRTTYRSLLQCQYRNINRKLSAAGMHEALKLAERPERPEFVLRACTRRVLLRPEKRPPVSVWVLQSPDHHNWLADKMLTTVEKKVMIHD
# ASSAY_PROCEDURE: NIMH PDSP radioligand binding, membranes
# EXPERIMENTAL_CONDITIONS: read-out: Ki
# Method: Radioligand binding assays with membrane preparations to determine binding affinity were carried out as outlined before[540] and by the National Institute of Mental Health’s Psychoactive Drug Screening Program (NIMH PDSP) (https://pdsp.unc.edu/), Contract # HHSN-271–2013–00017-C. The NIMH PDSP is Directed by B.L.R. at the University of North Carolina at Chapel Hill, Chapel Hill, NC, and Project Officer Jamie Driscoll at NIMH, Bethesda, MD.
OBSERVABLE: pKi
Reminder that pKi means the negative base-10 logarithm of the concentration expressed in mol/L.

Complete the entry with pKi for c1ccc2c(c1)N=C(N1CCNCC1)c1ccccc1N2
6.97

* * *

# STUDY_TARGET: UniProtKB P46098
# Sequence (P46098 24-478): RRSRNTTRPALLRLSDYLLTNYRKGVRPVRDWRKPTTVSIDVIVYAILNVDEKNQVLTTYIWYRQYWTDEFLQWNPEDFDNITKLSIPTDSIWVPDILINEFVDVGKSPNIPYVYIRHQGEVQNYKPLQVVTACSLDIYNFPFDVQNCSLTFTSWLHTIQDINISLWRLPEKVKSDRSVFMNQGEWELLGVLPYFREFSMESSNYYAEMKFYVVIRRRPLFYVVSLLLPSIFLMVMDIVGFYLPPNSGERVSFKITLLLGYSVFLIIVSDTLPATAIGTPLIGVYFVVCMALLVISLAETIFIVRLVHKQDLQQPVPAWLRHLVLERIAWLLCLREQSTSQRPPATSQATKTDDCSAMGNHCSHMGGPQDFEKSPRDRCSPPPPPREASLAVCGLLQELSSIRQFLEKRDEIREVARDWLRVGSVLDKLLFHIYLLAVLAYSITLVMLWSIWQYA
# ASSAY_PROCEDURE: NIMH PDSP radioligand binding, membranes
# EXPERIMENTAL_CONDITIONS: read-out: Ki
OBSERVABLE: Ki (nM)
State just the number; it will be interpreted in nM.

Complete the entry with Ki for c1ccc2c(c1)N=C(N1CCNCC1)c1ccccc1N2
360

* * *

# STUDY_TARGET: hM1 (Homo sapiens, UniProt P11229)
# ASSAY_PROCEDURE: whole-cell [3H]NMS competition binding
# EXPERIMENTAL_CONDITIONS: hM1, FlpIn CHO cells, mean (±SEM)
OBSERVABLE: Ki
Just so you know, I need the unit written after the number.

>  <COMPOUND>
CN1CCN(C2=Nc3ccccc3Cc3ccccc32)CC1 [perlapine]

>  <Ki>
91.2 nM

$$$$

In the following, a different compound is considered.
Complete the entry with Ki for c1ccc2c(c1)N=C(N1CCNCC1)c1ccccc1N2 [C21]
1070 nM

* * *

# STUDY_TARGET: D1 (Homo sapiens)
# Sequence (P21728 whole entry): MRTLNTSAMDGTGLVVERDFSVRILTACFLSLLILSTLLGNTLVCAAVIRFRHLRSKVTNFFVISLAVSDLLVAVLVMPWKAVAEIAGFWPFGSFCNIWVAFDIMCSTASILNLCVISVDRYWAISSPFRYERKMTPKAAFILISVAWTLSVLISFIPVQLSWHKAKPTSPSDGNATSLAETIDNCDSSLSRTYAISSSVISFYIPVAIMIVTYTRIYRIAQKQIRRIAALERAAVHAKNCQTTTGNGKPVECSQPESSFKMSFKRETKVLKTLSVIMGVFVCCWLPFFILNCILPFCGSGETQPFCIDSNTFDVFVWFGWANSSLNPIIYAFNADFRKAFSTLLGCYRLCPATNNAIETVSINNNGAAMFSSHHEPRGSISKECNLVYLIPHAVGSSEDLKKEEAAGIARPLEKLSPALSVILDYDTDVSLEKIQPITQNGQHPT
# ASSAY_PROCEDURE: NIMH PDSP radioligand binding, membranes
# EXPERIMENTAL_CONDITIONS: read-out: Ki
OBSERVABLE: pKi
Reminder that pKi means the negative base-10 logarithm of the concentration expressed in mol/L.

Complete the entry with pKi for c1ccc2c(c1)N=C(N1CCNCC1)c1ccccc1N2
6.32

* * *

# STUDY_TARGET: MOR (Homo sapiens, UniProt P35372)
# Sequence (P35372 whole entry): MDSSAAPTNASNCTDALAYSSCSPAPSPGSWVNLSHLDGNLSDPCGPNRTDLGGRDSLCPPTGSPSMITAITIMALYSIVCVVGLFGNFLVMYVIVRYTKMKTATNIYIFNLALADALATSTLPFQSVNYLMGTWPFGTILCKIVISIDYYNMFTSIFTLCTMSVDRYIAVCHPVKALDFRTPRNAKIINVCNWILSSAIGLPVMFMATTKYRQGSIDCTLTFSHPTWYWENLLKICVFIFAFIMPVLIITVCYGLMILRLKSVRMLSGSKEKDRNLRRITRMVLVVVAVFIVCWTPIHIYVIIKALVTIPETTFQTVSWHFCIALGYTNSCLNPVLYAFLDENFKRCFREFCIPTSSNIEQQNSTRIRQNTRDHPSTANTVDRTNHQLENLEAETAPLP
# ASSAY_PROCEDURE: NIMH PDSP radioligand binding, membranes
# EXPERIMENTAL_CONDITIONS: read-out: Ki
OBSERVABLE: pKi
Reminder that pKi means the negative base-10 logarithm of the concentration expressed in mol/L.

Complete the entry with pKi for c1ccc2c(c1)N=C(N1CCNCC1)c1ccccc1N2
5.41

* * *

# ASSAY_PROCEDURE: plasma protein binding
# Type: in vitro ADME
OBSERVABLE: fraction unbound
Kindly provide the number alone.

Complete the entry with fraction unbound for c1ccc2c(c1)N=C(N1CCNCC1)c1ccccc1N2
0.049

* * *

# STUDY_TARGET: M1 (Homo sapiens, UniProt P11229)
# Sequence (P11229 1-460): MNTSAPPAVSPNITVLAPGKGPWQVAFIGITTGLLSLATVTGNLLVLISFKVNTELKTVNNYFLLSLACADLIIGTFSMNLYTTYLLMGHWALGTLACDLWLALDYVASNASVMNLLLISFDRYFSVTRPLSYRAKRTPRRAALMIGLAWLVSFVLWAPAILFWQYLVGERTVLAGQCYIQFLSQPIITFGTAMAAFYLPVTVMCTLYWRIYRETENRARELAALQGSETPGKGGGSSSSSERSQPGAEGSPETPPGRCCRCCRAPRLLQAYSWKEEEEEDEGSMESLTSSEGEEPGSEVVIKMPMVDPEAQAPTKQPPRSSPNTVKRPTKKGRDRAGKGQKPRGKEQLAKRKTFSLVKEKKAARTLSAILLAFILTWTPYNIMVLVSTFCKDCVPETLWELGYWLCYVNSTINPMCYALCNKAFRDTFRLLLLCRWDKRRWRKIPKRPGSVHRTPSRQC
# ASSAY_PROCEDURE: NIMH PDSP radioligand binding, membranes
# EXPERIMENTAL_CONDITIONS: read-out: Ki
# Protocol: Radioligand binding assays with membrane preparations to determine binding affinity were carried out as outlined before[540] and by the National Institute of Mental Health’s Psychoactive Drug Screening Program (NIMH PDSP) (https://pdsp.unc.edu/), Contract # HHSN-271–2013–00017-C. The NIMH PDSP is Directed by B.L.R. at the University of North Carolina at Chapel Hill, Chapel Hill, NC, and Project Officer Jamie Driscoll at NIMH, Bethesda, MD.
OBSERVABLE: pKi
Reminder that pKi means the negative base-10 logarithm of the concentration expressed in mol/L.

Complete the entry with pKi for c1ccc2c(c1)N=C(N1CCNCC1)c1ccccc1N2
6.26
